Data provenance: patent US10781181B2

SYSTEM_NAME: Human FXIa (Homo sapiens (Human), UniProt P03951)
Sequence (P03951 388-625 limits assumed): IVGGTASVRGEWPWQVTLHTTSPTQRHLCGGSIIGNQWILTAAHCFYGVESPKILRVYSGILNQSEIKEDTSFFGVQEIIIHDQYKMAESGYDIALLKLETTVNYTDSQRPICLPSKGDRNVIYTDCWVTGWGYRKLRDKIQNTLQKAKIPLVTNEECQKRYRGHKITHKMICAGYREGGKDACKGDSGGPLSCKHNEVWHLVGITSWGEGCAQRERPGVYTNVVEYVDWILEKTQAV
Sequence (P03951 19-387 partner limits assumed): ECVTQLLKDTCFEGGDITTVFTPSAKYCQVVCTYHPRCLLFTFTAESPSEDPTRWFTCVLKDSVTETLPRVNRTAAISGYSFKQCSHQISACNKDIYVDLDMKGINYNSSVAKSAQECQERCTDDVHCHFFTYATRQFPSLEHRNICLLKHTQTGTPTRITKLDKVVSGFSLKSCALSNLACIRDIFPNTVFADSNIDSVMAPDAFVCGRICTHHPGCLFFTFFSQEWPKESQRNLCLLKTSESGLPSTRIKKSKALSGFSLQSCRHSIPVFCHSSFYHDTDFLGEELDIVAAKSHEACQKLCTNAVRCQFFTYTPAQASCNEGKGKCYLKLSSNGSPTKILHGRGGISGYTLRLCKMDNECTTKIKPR
ASSAY_EXPLANATION: Determination of the % inhibition for FXIa
Assay type: biochemical
CONDITION_SET: 40 μM of the test compound, human FXIa, 25° C.; read-out: % Inhibition @ 40 μM (human FXIa)
ASSAY_ENDPOINT: inhibition at 40 µM (%)

Worked examples, 3 compounds total:
Cn1ncc2cc(Cn3cc(C(=O)NCCOc4cccc(Cl)c4)c(N)n3)ccc21 [Example 93] : 2
CNC(=O)c1ccc(Cn2cc(C(=O)NCCOc3cccc(Cl)c3)c(N)n2)cc1 [Example 61] : 0
Cc1cc(Cl)cc(OCCNC(=O)c2cn(Cc3ccc(Cn4ccccc4=O)cc3)nc2N)c1 [Example 33] : 29

P = CN(Cc1ccc(Cn2cc(C(=O)NCCOc3cccc(Cl)c3)c(N)n2)cc1)c1ccccn1 [Example 87]
Q = Nc1nn(Cc2ccc(Cn3ccccc3=O)cc2)cc1C(=O)N[C@H]1CCN(c2cccc(Cl)c2)C1=O [Example 107]
R = Nc1nn(Cc2ccc(Cn3ccccc3=O)cc2)cc1C(=O)N[C@H]1CC(=O)N(c2cccc(Cl)c2)C1 [Example 111]
S = Nc1nn(Cc2ccc(Cn3ccccc3=O)cc2)cc1C(=O)N[C@@H]1CCN(c2cccc(Cl)c2)C1=O [Example 110]
// ranking: key=inhibition at 40 µM, reverse=True Please respond by ranking the labels in the order requested. R, S, Q, P
(R: 23%, S: 13%, Q: 2%, P: 0%)

* * *

SYSTEM_NAME: Human plasma kallikrein (Homo sapiens (Human), UniProt P03952)
Sequence (P03952 391-638): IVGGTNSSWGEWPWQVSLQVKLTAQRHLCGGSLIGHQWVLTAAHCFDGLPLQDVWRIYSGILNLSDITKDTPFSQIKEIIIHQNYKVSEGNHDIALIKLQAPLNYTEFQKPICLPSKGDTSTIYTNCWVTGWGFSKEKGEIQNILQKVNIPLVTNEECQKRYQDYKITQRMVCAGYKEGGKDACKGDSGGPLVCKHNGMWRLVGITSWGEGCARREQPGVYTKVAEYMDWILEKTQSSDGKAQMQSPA
Sequence (P03952 20-390 partner): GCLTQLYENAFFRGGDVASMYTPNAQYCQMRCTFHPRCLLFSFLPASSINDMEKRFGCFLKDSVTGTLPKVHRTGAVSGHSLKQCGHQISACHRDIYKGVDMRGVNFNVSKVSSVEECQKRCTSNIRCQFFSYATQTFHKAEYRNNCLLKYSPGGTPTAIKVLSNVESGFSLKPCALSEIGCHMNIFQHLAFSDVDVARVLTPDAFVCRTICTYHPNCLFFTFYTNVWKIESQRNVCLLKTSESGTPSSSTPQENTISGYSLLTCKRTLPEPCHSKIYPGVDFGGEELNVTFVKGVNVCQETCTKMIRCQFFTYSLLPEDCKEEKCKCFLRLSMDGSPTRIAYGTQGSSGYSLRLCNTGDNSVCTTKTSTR
ASSAY_EXPLANATION: Determination of the IC50 for plasma kallikrein
CONDITION_SET: read-out: IC50 (human PKal)
ASSAY_ENDPOINT: IC50 (µM)

Worked examples, 4 compounds total:
Nc1nn(Cc2ccc(CN3CCCCC3=O)cc2)cc1C(=O)NCCOc1cccc(Cl)c1 : 0.112
Cc1ccc(OCCNC(=O)c2cn(Cc3ccc(Cn4ccccc4=O)cc3)nc2N)cc1Cl : 0.0246
Nc1nn(Cc2ccc(Cn3ccccc3=O)cc2)cc1C(=O)N[C@H]1CCN(c2cc(Cl)ccn2)C1 : 7.46
Nc1nn(Cc2ccc(Cn3ccccc3=O)cc2)cc1C(=O)N[C@H]1CC(=O)N(c2cccc(Cl)c2)C1 : 0.0421

I = Nc1nn(Cc2ccc(-c3ncccn3)cc2)cc1C(=O)NCCOc1cccc(Cl)c1
II = C[C@H](COc1cccc(Cl)c1)NC(=O)c1cn(Cc2ccc(Cn3ccccc3=O)cc2)nc1N
III = Nc1nn(Cc2ccc(Cn3ccccc3=O)cc2)cc1C(=O)N[C@@H]1CCN(c2cccc(Cl)c2)C1
IV = Nc1nn(Cc2ccc(Cn3cccnc3=O)cc2)cc1C(=O)NCCOc1cccc(Cl)c1
V = O=C(NCCOc1cccc(Cl)c1)c1cnn(Cc2ccc(Cn3ccccc3=O)cc2)c1
Ascending by IC50, please. Please respond by ranking the labels in the order requested. V, IV, II, III, I

P = CN(Cc1ccc(Cn2cc(C(=O)NCCOc3cccc(Cl)c3)c(N)n2)cc1)c1ccccn1
Q = Cc1nn(Cc2ccc(Cn3ccccc3=O)cc2)cc1C(=O)NCCOc1cccc(Cl)c1
Which record would sort first by descending IC50, P or Q ? Give the label of your selection. P
(P: 0.78 µM, Q: 0.0163 µM)

I = COCc1nn(Cc2ccc(Cn3ccccc3=O)cc2)cc1C(=O)NCCOc1ccccc1Cl
II = Nc1nn(Cc2cccc(N3CCCC3)n2)cc1C(=O)NCCOc1cccc(Cl)c1
III = Nc1nn(Cc2ccc(Cn3ccccc3=O)cc2)cc1C(=O)NCCOc1ccc(Cl)c(Cl)c1
IV = CNC(=O)CNc1ccc(Cn2cc(C(=O)NCCOc3cccc(Cl)c3)c(N)n2)cn1
// ranking: key=IC50, reverse=True Please respond by ranking the labels in the order requested. IV, II, I, III
(IV: 6.93 µM, II: 4.73 µM, I: 1.89 µM, III: 0.0968 µM)

a = Nc1nn(Cc2ccc(Cn3ccccc3=O)cc2)cc1C(=O)NCCOc1cncc(Cl)c1
b = COCc1nn(Cc2ccc(Cn3ccccc3=O)cc2)cc1C(=O)NCCOc1ccc(F)c(Cl)c1
Hi! Which is lower in terms of IC50, the first one a or the second one b ? Give the label of your selection. b
(b: 0.266 µM, a: 2.01 µM)

P = Cc1nc2cc(Cn3cc(C(=O)NCCOc4cccc(Cl)c4)c(N)n3)ccc2n1C
Q = CCOC(=O)c1cccc(Cn2cc(C(=O)NCCOc3cccc(Cl)c3)c(N)n2)c1
R = C[C@@H](NC(=O)c1cn(Cc2ccc(Cn3ccccc3=O)cc2)nc1N)C(=O)N(C)c1cccc(Cl)c1
S = Nc1nn(Cc2ccc(Cn3ccccc3=O)cc2)cc1C(=O)NCCOc1cc(Cl)cc(Cl)c1
T = Nc1nn(Cc2ccc(Cn3ccccc3=O)cc2)cc1C(=O)NCCNc1cc(Cl)ccn1
Ascending by IC50, please. Please respond by ranking the labels in the order requested. T, S, P, R, Q
(T: 0.0301 µM, S: 0.646 µM, P: 1.9 µM, R: 3.02 µM, Q: 7.15 µM)

1 = O=C(NCCOc1cccc(Cl)c1)c1cn(Cc2ccc(N3CCCC3)nc2)nc1C(F)(F)F
2 = Nc1nn(Cc2ccc(-n3cccn3)nc2)cc1C(=O)NCCOc1cccc(Cl)c1
3 = COCc1nn(Cc2ccc(Cn3cc(C)cn3)cc2)cc1C(=O)NCCOc1cccc(Cl)c1
4 = Nc1nn(Cc2cccc(-c3ccccc3)n2)cc1C(=O)NCCOc1cccc(Cl)c1
Ascending by IC50, please. Please respond by ranking the labels in the order requested. 3, 1, 4, 2
(3: 0.231 µM, 1: 2.39 µM, 4: 5.94 µM, 2: 9.18 µM)

* * *

SYSTEM_NAME: Human FXIa (Homo sapiens (Human), UniProt P03951)
ASSAY_EXPLANATION: Determination of the % inhibition for FXIa
Assay type: biochemical
CONDITION_SET: 40 μM of the test compound, human FXIa, 25° C.; read-out: % Inhibition @ 40 μM (human FXIa)
Experimental: Determination of the % Inhibition for FXIa Human FXIa (Enzyme Research Laboratories) was incubated at 25° C. with the fluorogenic substrate Z-Gly-Pro-Arg-AFC and 40 μM of the test compound. Residual enzyme activity (initial rate of reaction) was determined by measuring the change in […].
ASSAY_ENDPOINT: inhibition at 40 µM (%)

Nc1nn(Cc2ccc(Cn3ccccc3=O)cc2)cc1C(=O)NCCOc1cc(Cl)ccc1Cl : 7

a = CN(CCNC(=O)c1cn(Cc2ccc(Cn3ccccc3=O)cc2)nc1N)c1cccc(Cl)c1
b = Nc1nn(Cc2ccc(-c3ncccn3)cc2)cc1C(=O)NCCOc1cccc(Cl)c1
Hi! Which is lower in terms of inhibition at 40 µM, the first one a or the second one b ? Give the label of your selection. a

P = CN(C(=O)CNC(=O)c1cn(Cc2ccc(Cn3ccccc3=O)cc2)nc1N)c1cccc(Cl)c1
Q = Nc1nn(Cc2ccc(C(=O)N3CCCC3)cc2)cc1C(=O)NCCOc1cccc(Cl)c1
Hi! Which is lower in terms of inhibition at 40 µM, the first one P or the second one Q ? Give the label of your selection. P

I = Nc1nn(Cc2ccc(N3CCCC3)nc2)cc1C(=O)NCCOc1cccc(Cl)c1
II = COC(=O)c1ccc(Cn2cc(C(=O)NCCOc3cccc(Cl)c3)c(N)n2)cc1
III = Nc1nn(Cc2ccc(Cn3ccccc3=O)cc2)cc1C(=O)NCCNc1cc(Cl)ccn1
IV = C[C@@H](NC(=O)c1cn(Cc2ccc(Cn3ccccc3=O)cc2)nc1N)C(=O)N(C)c1cccc(Cl)c1
V = Nc1nn(Cc2ccc(Cn3ccccc3=O)cc2)cc1C(=O)NCCCn1cc(Cl)cn1
// ranking: key=inhibition at 40 µM, reverse=True Please respond by ranking the labels in the order requested. V, III, IV, II, I

a = COCc1nn(Cc2ccc(Cn3ccccc3=O)cc2)cc1C(=O)NCCOc1cccc(Cl)c1
b = Nc1nn(Cc2cccc(-c3ccccc3)n2)cc1C(=O)NCCOc1cccc(Cl)c1
Which record would sort first by descending inhibition at 40 µM, a or b ? Give the label of your selection. b
(b: 26%, a: 0%)

* * *

SYSTEM_NAME: Human plasma kallikrein (Homo sapiens (Human), UniProt P03952)
ASSAY_EXPLANATION: Determination of the IC50 for plasma kallikrein
CONDITION_SET: read-out: IC50 (human PKal)
pIC50: −log10 of the molar value.
ASSAY_ENDPOINT: pIC50

Cc1cnn(-c2ccc(Cn3cc(C(=O)NCCOc4cccc(Cl)c4)c(N)n3)cn2)c1 : 5.47
Nc1c(C(=O)NCCOc2cccc(Cl)c2)cnn1Cc1ccc2[nH]ncc2c1 : < 5.00
CN(CC(=O)O)c1cc(Cn2cc(C(=O)NCCOc3cccc(Cl)c3)c(N)n2)ccn1 : < 5.00
CNC(=O)CN(C)c1cc(Cn2cc(C(=O)NCCOc3cccc(Cl)c3)c(N)n2)ccn1 : < 5.00
Nc1nn(Cc2cccc(Br)c2)cc1C(=O)NCCOc1cccc(Cl)c1 : 5.07
Nc1nn(Cc2ccc(C(=O)N3CCCCC3)cc2)cc1C(=O)NCCOc1cccc(Cl)c1 : < 5.00

Switching to the query record.
Can you look up the measured pIC50 of COCc1nn(Cc2ccc(Cn3ccccc3=O)cc2)cc1C(=O)NCCOc1cc(Cl)cnn1 for me? < 5.00
